Reference source: ChEMBL document CHEMBL1201862

# Test system: SF-539
# Assay method text: NCI tumour cell line growth inhibition, 48 h
The source made the active and inactive calls. Rule as the data show it: active = GI50 up to about 1.1 µM and inactive = higher.
# GI50 annotations

A selection of reference data follows.
>  <Molecule>
O=C(NCc1ccc(Cl)c(Cl)c1)c1nc2ccccc2nc1NCc1ccc(Cl)c(Cl)c1

>  <Target or system>
SF-539

>  <GI50>
> 100 µM (inactive)

$$$$
>  <Molecule>
CCCCCCCCCCCC(=O)C1=C(O)CCC(O)C1=O (stereo unspecified)

>  <Target or system>
SF-539

>  <GI50>
19.1 µM (inactive)

$$$$
>  <Molecule>
CN1C(=O)C(=CN(C)c2ccccc2)C(=O)N(C)C1=O

>  <Target or system>
SF-539

>  <GI50>
> 100 µM (inactive)

$$$$

Give me measured GI50, please, for this molecule: NC(CCCCNCc1ccccc1)C(=O)O (stereo unspecified)
> 100 µM (inactive)

Give me measured GI50, please, for this molecule: `O=C1OC(=O)c2c1cc1cc3c(cc1c2-c1ccc2c(c1)OCO2)OCO3`
> 100 µM (inactive)

Give me measured GI50, please, for this molecule: COc1c(O)c2c3c(c(C)cc(O)c3c1O)C(=O)C(O)(C(C)(C)C(C)=O)C2=O (stereo unspecified)
> 100 µM (inactive)
